List of protein stability index values.
B1: ZNF232 (parent)
chain: HSGEKPFICKECGKAYGWCSELIR

Variants of: B1
procedure_text: protein stability index of a GFP-peptide fusion (GPS, HEK-293T) (PSI 1-6); higher = more stable;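 also: lentivirally expressed fusions sorted by FACS into six bins by GFP to DsRed ratio, PSI derived from sequencing read proportions per bin multiplied by bin number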
condition: c terminus: a fixed tail appended
observable: protein stability index

INSERT INTO measurements (item_sequence, observable, result) VALUES
  ('HSGEKPFICKNCGKAYGWCSELIR [E11N]', 'protein stability index', 1.61),
  ('HSGELPFICKECGKAYGWCSELIR [K5L]', 'protein stability index', 1.65),
  ('HSGEQPFICKECGKAYGWCSELIR [K5Q]', 'protein stability index', 2.12),
  ('HSGEKPFICKECGKAYGWCSELIH [R24H]', 'protein stability index', 3.51),
  ('WSGEKPFICKECGKAYGWCSELIR [H1W]', 'protein stability index', 1.81),
  ('HSGEKPFICKEVGKAYGWCSELIR [C12V]', 'protein stability index', 2.79),
  ('HEGEKPFICKECGKAYGWCSELIR [S2E]', 'protein stability index', 2.35),
  ('HSGEKPFICKECGKAYGDCSELIR [W18D]', 'protein stability index', 2.67),
  ('HSGEKPFICKEYGKAYGWCSELIR [C12Y]', 'protein stability index', 2.15),
  ('HSGEVPFICKECGKAYGWCSELIR [K5V]', 'protein stability index', 2.08),
  ('HSGEKPFACKECGKAYGWCSELIR [I8A]', 'protein stability index', 1.7),
  ('HSPEKPFICKECGKAYGWCSELIR [G3P]', 'protein stability index', 2.22),
  ('HSGEKPFFCKECGKAYGWCSELIR [I8F]', 'protein stability index', 1.51),
  ('HSGEKPFICKECGKAYGWCSELIL [R24L]', 'protein stability index', 1.71),
  ('HSGEKPFICSECGKAYGWCSELIR [K10S]', 'protein stability index', 2.09),
  ('HSGVKPFICKECGKAYGWCSELIR [E4V]', 'protein stability index', 1.05),
  ('HSGEKPFICKECGKAYGWCSELIF [R24F]', 'protein stability index', 2.23),
  ('HSGEKPFICKECGKASGWCSELIR [Y16S]', 'protein stability index', 1.99),
  ('HSGEKPFICKECGKAYGWCHELIR [S20H]', 'protein stability index', 2.33),
  ('HSTEKPFICKECGKAYGWCSELIR [G3T]', 'protein stability index', 2.07),
  ('HSGEKPFICKECGKAYGWCTELIR [S20T]', 'protein stability index', 2.11),
  ('HSGEKPFICKECGKAYGWCSFLIR [E21F]', 'protein stability index', 1.92),
  ('HSGEKKFICKECGKAYGWCSELIR [P6K]', 'protein stability index', 2.91),
  ('HSGEKDFICKECGKAYGWCSELIR [P6D]', 'protein stability index', 2.68),
  ('HSGEKPFICKECGKAYGWNSELIR [C19N]', 'protein stability index', 2.08),
  ('HSGEKPFQCKECGKAYGWCSELIR [I8Q]', 'protein stability index', 2.02),
  ('HSGEKPFICKECGKAYGWLSELIR [C19L]', 'protein stability index', 1.69),
  ('HSAEKPFICKECGKAYGWCSELIR [G3A]', 'protein stability index', 1.86),
  ('HSGEKPFICKECGKAYGWCSILIR [E21I]', 'protein stability index', 2.07),
  ('HSGEKPFICKECGKAYGTCSELIR [W18T]', 'protein stability index', 1.83),
  ('HSGEKPFICKECGKAYGWCSEWIR [L22W]', 'protein stability index', 1.67),
  ('HSGTKPFICKECGKAYGWCSELIR [E4T]', 'protein stability index', 1.29),
  ('HSGEKPFICKECGTAYGWCSELIR [K14T]', 'protein stability index', 2.24),
  ('HSGEKPFIQKECGKAYGWCSELIR [C9Q]', 'protein stability index', 2.48),
  ('HSGEKPFICKECGKAYGWCSELAR [I23A]', 'protein stability index', 2.04),
  ('HSGEKPFIYKECGKAYGWCSELIR [C9Y]', 'protein stability index', 2.68),
  ('HSGEKPFICKEGGKAYGWCSELIR [C12G]', 'protein stability index', 2.15),
  ('HSGEKPFIGKECGKAYGWCSELIR [C9G]', 'protein stability index', 1.97),
  ('HSGEKPFICKECGKAYGWCSELPR [I23P]', 'protein stability index', 2.28),
  ('HSGEKPFICKECGKAYGRCSELIR [W18R]', 'protein stability index', 1.9),
  ('HKGEKPFICKECGKAYGWCSELIR [S2K]', 'protein stability index', 1.74),
  ('HSGEKPFICKECGKAEGWCSELIR [Y16E]', 'protein stability index', 1.75),
  ('HSGEKPFICKECYKAYGWCSELIR [G13Y]', 'protein stability index', 2.12),
  ('HSGEKPFICKECQKAYGWCSELIR [G13Q]', 'protein stability index', 1.44),
  ('HSGEIPFICKECGKAYGWCSELIR [K5I]', 'protein stability index', 2.21),
  ('HSGEKPFICKECGKAYGPCSELIR [W18P]', 'protein stability index', 1.81),
  ('HSGEKPFICKECGKAYGWCSELQR [I23Q]', 'protein stability index', 2.58),
  ('HSGEKPFECKECGKAYGWCSELIR [I8E]', 'protein stability index', 2.22),
  ('HSGEKPFICKECGKAYGMCSELIR [W18M]', 'protein stability index', 2.57),
  ('HSGEKPFICKSCGKAYGWCSELIR [E11S]', 'protein stability index', 2.31),
  ('HSGEKPFIFKECGKAYGWCSELIR [C9F]', 'protein stability index', 2.78),
  ('HSGEKPFICKECGKACGWCSELIR [Y16C]', 'protein stability index', 2.5),
  ('HSGEKWFICKECGKAYGWCSELIR [P6W]', 'protein stability index', 1.69),
  ('HSGEKPFICKECGKAYGWCSKLIR [E21K]', 'protein stability index', 2.26),
  ('HSGEDPFICKECGKAYGWCSELIR [K5D]', 'protein stability index', 2.17),
  ('HSGEKPDICKECGKAYGWCSELIR [F7D]', 'protein stability index', 2.29),
  ('HSGEKPFICKECGKAYGWCSETIR [L22T]', 'protein stability index', 1.72),
  ('HSGEKPFICKECGKAAGWCSELIR [Y16A]', 'protein stability index', 1.58),
  ('HSGEKPFICKECGFAYGWCSELIR [K14F]', 'protein stability index', 2.02),
  ('CSGEKPFICKECGKAYGWCSELIR [H1C]', 'protein stability index', 1.61),
  ('HSIEKPFICKECGKAYGWCSELIR [G3I]', 'protein stability index', 1.87),
  ('HSYEKPFICKECGKAYGWCSELIR [G3Y]', 'protein stability index', 1.88),
  ('HSGEKPFICKECPKAYGWCSELIR [G13P]', 'protein stability index', 1.65),
  ('HSGEKNFICKECGKAYGWCSELIR [P6N]', 'protein stability index', 2.37),
  ('HTGEKPFICKECGKAYGWCSELIR [S2T]', 'protein stability index', 1.76),
  ('HMGEKPFICKECGKAYGWCSELIR [S2M]', 'protein stability index', 2.07),
  ('HSGEKPFICKECGKAYGWCKELIR [S20K]', 'protein stability index', 2.2);
